// data source = patent US20250353858A1

Please go through the items and note down their IC50.
target: DGKα (Homo sapiens (Human), UniProt P23743); note: full length DGKα 7.5 nM
Sequence (P23743 whole entry): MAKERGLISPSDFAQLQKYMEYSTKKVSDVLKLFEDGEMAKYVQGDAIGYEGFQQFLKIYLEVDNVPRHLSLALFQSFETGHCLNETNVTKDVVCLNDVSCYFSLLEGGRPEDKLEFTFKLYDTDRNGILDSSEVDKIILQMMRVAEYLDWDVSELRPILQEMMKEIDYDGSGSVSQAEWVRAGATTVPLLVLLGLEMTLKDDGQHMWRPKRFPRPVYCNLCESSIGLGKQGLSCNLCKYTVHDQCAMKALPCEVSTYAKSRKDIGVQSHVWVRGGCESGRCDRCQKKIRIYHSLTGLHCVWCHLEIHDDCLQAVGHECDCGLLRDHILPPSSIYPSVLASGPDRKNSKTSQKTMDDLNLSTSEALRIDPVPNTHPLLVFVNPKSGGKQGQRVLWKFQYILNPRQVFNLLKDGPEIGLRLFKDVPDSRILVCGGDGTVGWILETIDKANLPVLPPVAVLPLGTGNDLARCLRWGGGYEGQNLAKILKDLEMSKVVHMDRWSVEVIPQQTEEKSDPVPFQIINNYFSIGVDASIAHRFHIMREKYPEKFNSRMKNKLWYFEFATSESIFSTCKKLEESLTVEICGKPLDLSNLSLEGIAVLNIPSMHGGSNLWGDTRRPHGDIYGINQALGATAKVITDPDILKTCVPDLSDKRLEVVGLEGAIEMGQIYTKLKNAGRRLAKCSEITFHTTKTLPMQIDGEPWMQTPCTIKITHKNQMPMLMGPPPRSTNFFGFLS
One number for each entry, in µM.

{"columns": ["Molecule", "Experimental System", "IC50 / µM"],
 "data": [
  ["CC(c1ccc2c(c1)OC(C)(C)CO2)N1C[C@H](C)N(c2c(C#N)c(=O)n(C)c3cc(CC#N)nn23)C[C@H]1C (stereo partly drawn) [Compound A12]", "DGKα (Homo sapiens (Human), UniProt P23743)", 6.52],
  ["CC[C@H]1CN(C(C)c2ccn3nc(C)cc3n2)[C@H](CC)CN1c1cc(=O)n(C)c2cc(CC#N)nn12 (single isomer, unassigned) [Compound A40a]", "DGKα (Homo sapiens (Human), UniProt P23743)", 1.54]
]}

Please find the next molecule below.
Incoming: So what IC50 did CC(c1ccc2c(c1)OC(C)(C)CO2)N1C[C@H](C)N(c2c(C#N)c(=O)n(C)c3cc(CC#N)nn23)C[C@H]1C (single isomer, unassigned) [Compound A12b] get with DGKα (Homo sapiens (Human), UniProt P23743)?
Outgoing: 10.4

###

The molecules below have reported log10 of IC50 for UniProt P23743.
All values: log10 IC50 [µM].

Here are 8 molecules together with their reported answers.
{"columns": ["Molecule", "Outcome Measure", "Value"],
 "data": [
  ["CC[C@H]1CN(C(C)c2ccc(OC(C)C)cn2)[C@H](CC)CN1c1cc(=O)n(C)c2cc(CC#N)nn12 (some centres unmarked)", "log10 of IC50", -0.83],
  ["CC[C@H]1CN(C(C)c2ccn3nc(F)cc3n2)[C@H](CC)CN1c1cc(=O)n(C)c2cc(CC#N)nn12 (single isomer, unassigned) [Compound A41b]", "log10 of IC50", 0.20],
  ["CC(c1ccc2c(c1)OC(C)(C)CO2)N1C[C@H](C)N(c2c(C#N)c(=O)n(C)c3cc(CC#N)nn23)C[C@H]1C (single isomer, unassigned) [Compound A12a]", "log10 of IC50", 1.10],
  ["CC[C@H]1CN(C(C)c2ccc3nc(C)c(F)n3n2)[C@H](CC)CN1c1nc(=O)n(C)c2cc(CC#N)nn12 (single isomer, unassigned) [Compound A48a]", "log10 of IC50", 0.73],
  ["CC[C@H]1CN(C(C)c2ccn3nccc3n2)[C@H](CC)CN1c1cc(=O)n(C)c2cc(CC#N)nn12 (single isomer, unassigned) [Compound A39a]", "log10 of IC50", -0.23],
  ["CC[C@@H]1CN(c2c(F)c(=O)n(C)c3cc(CC#N)nn23)[C@@H](C)CN1C(C)c1ccc(C2CC2)nc1 (single isomer, unassigned) [Compound A24b]", "log10 of IC50", 0.65],
  ["CC[C@@H]1CN(c2c(F)c(=O)n(C)c3cc(CC#N)nn23)[C@@H](C)CN1C(C)c1ccc(C2CC2)nc1 (single isomer, unassigned) [Compound A24a]", "log10 of IC50", 0.43],
  ["CC[C@@H]1CN(c2cc(=O)n(C)c3cc(CC#N)nn23)[C@@H](C)CN1[C@@H](C)c1ccc2ncsc2n1 (single isomer, unassigned) [Compound A29a]", "log10 of IC50", -0.67]
]}

Incoming: Record request: log10 of IC50 value, item CC[C@@H]1CN(c2cc(=O)n(C)c3cc(CC#N)nn23)[C@@H](C)CN1C(C)c1ccc2ncsc2c1 (single isomer, unassigned) [Compound A28a]
Outgoing: -0.63

###

target: DGKζ (Homo sapiens (Human))
Sequence (Q13574 other isoform, or with tags, fused parts or gaps): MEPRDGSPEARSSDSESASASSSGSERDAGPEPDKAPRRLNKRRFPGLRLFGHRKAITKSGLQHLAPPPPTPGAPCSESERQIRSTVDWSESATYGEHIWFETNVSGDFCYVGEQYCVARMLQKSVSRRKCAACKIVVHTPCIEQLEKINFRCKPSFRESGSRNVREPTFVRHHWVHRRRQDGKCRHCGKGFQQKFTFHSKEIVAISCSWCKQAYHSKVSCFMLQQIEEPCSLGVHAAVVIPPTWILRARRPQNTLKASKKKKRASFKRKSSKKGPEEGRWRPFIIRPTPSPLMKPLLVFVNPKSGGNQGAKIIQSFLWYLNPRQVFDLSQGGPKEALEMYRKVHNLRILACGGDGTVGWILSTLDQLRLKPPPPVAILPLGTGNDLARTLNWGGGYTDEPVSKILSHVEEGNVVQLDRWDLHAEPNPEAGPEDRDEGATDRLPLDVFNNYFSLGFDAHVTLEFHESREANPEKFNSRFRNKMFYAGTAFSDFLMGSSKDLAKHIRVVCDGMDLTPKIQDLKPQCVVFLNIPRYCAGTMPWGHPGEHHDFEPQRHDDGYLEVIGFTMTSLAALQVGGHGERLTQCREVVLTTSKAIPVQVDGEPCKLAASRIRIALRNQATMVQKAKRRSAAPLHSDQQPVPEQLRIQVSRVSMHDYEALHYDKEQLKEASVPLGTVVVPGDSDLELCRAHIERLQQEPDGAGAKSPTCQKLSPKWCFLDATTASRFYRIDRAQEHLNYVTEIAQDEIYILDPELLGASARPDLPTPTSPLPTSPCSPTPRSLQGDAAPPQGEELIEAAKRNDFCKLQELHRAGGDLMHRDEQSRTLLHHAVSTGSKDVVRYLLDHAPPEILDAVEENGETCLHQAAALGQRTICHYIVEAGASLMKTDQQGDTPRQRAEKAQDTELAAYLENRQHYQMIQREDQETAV
I'd appreciate it if you could supply pIC50 values for the items below.
Give bare numbers, as −log10 of the molar value.

Example cases with answers are listed next.
{"columns": ["Molecule", "Experimental System", "pIC50"],
 "data": [
  ["CC[C@H]1CN(C(C)c2ccn3nc(C4CC4)cc3n2)[C@H](CC)CN1c1nc(=O)n(C)c2cc(CC#N)nn12 (single isomer, unassigned) [Compound A54b]", "DGKζ (Homo sapiens (Human))", 7.72],
  ["CC[C@H]1CN(C(C)c2ccc(OC(C)C)cn2)[C@H](CC)CN1c1cc(=O)n(C)c2cc(CC#N)nn12 (stereo partly drawn)", "DGKζ (Homo sapiens (Human))", 6.76],
  ["CC[C@H]1CN(C(C)c2ccc3nc(C)sc3c2)[C@H](CC)CN1c1nc(=O)n(C)c2cc(CC#N)nn12 (single isomer, unassigned) [Compound A53a]", "DGKζ (Homo sapiens (Human))", 7.70]
]}

# per-item lookup of pIC50; items listed below
1. CC[C@H]1CN(C(C)c2ccc(F)cc2C(F)F)[C@H](CC)CN1c1cc(=O)n(C)c2cc(CC#N)nn12 (stereo partly drawn)
2. CC[C@H]1CN(C(C)c2ccn3nc(F)cc3n2)[C@H](CC)CN1c1nc(=O)n(C)c2cc(CC#N)nn12 (stereo partly drawn)

Outgoing:
1: 7.55; 2: 7.14

###

target: DGKα (Homo sapiens (Human), UniProt P23743); note: full length DGKα 7.5 nM
Outcome Measure: log10(IC50) (log10 of the value in nM)
Use the decimal logarithm of IC50 (nM).

Solved cases (8 shown):
{"columns": ["Compound", "log10(IC50)"],
 "data": [
  ["CC[C@H]1CN(C(C)c2ccn3nccc3n2)[C@H](CC)CN1c1cc(=O)n(C)c2cc(CC#N)nn12 (single isomer, unassigned) [Compound A39b]", 1.72],
  ["CC[C@H]1CN(C(C)c2ccn3nc(F)cc3n2)[C@H](CC)CN1c1cc(=O)n(C)c2cc(CC#N)nn12 (single isomer, unassigned) [Compound A41a]", 1.40],
  ["CC(c1ccc2ncc(C(F)F)nc2c1)N1C[C@H](C)N(c2cc(=O)n(C)c3cc(CC#N)nn23)C[C@H]1C (stereo partly drawn)", 3.67],
  ["CC[C@H]1CN(C(C)c2ccc3nc(C)sc3n2)[C@H](CC)CN1c1cc(=O)n(C)c2cc(CC#N)nn12 (single isomer, unassigned) [Compound A35a]", 3.35],
  ["CC[C@H]1CN(C(C)c2ccc(C3CC3)cc2F)[C@H](CC)CN1c1cc(=O)n(C)c2cc(CC#N)nn12 (stereo partly drawn)", 3.47],
  ["CC[C@@H]1CN(c2cc(=O)n(C)c3cc(CC#N)nn23)[C@@H](C)CN1[C@H](C)c1ccc2ncsc2n1 (single isomer, unassigned) [Compound A29b]", 3.20],
  ["Cc1cnc2ccc(C(C)N3C[C@H](C)N(c4cc(=O)[nH]c5cc(CC#N)nn45)C[C@H]3C)cc2n1 (stereo partly drawn)", 5.06],
  ["CC[C@@H]1CN(c2cc(=O)n(C)c3cc(CC#N)nn23)[C@@H](C)CN1C(C)c1ccc2ncsc2c1 (single isomer, unassigned) [Compound A28b]", 3.17]
]}

The following compounds each have a reported value; give each one's log10(IC50).
1. CC[C@H]1CN(C(C)c2ccn3nc(C4CC4)cc3n2)[C@H](CC)CN1c1nc(=O)n(C)c2cc(CC#N)nn12 (single isomer, unassigned) [Compound A54a]
2. CC[C@H]1CN(C(C)c2ccc3nc(C)cn3n2)[C@H](CC)CN1c1cc(=O)n(C)c2cc(CC#N)nn12 (single isomer, unassigned) [Compound A38a]
3. CC[C@H]1CN(C(C)c2ccc3nc(C)sc3c2)[C@H](CC)CN1c1nc(=O)n(C)c2cc(CC#N)nn12 (single isomer, unassigned) [Compound A53b]

Outgoing:
1. 2.69
2. 3.59
3. 2.98

###

Heads up, these molecules all have IC50 values measured for DGKζ (Homo sapiens (Human), UniProt Q13574).
Answers are plain numbers, in µM.

{"columns": ["Molecule", "Outcome Measure", "Measurement Units", "Value"],
 "data": [
  ["CC[C@H]1CN(C(C)c2ccn3nc(C4CC4)cc3n2)[C@H](CC)CN1c1nc(=O)n(C)c2cc(CC#N)nn12 (single isomer, unassigned) [Compound A54a]", "IC50", "µM", 4.9],
  ["CC[C@@H]1CN(c2cc(=O)[nH]c3cc(CC#N)nn23)[C@@H](C)CN1C(C)c1ccc2nccnc2c1 (single isomer, unassigned) [Compound A4a]", "IC50", "µM", 0.153],
  ["CC[C@H]1CN(C(C)c2ccn3nc(F)cc3n2)[C@H](CC)CN1c1cc(=O)n(C)c2cc(CC#N)nn12 (single isomer, unassigned) [Compound A41a]", "IC50", "µM", 0.08],
  ["CC[C@H]1CN(C(C)c2ccc3nc(C)c(F)n3n2)[C@H](CC)CN1c1nc(=O)n(C)c2cc(CC#N)nn12 (single isomer, unassigned) [Compound A48b]", "IC50", "µM", 0.024]
]}

# input for lookup
Incoming: # IC50 lookup, item CC[C@H]1CN(C(C)c2ccc3nc(C)sc3n2)[C@H](CC)CN1c1cc(=O)n(C)c2cc(CC#N)nn12 (single isomer, unassigned) [Compound A35a]
Outgoing: 4.69
